# ASSAY_PROCEDURE: in vivo
# SETTINGS: both, rat, iv, NOAEL
Structures can show the parent of a compound that is named as a salt.

MOLECULE	NOAEL at 4 week
COc1cc(Cc2cnc(N)nc2N)c2c(c1OC)OC(C1CC1)C=C2 (racemic) [iclaprim mesylate, methanesulfonate]	> 30 mg/kg/day

###

# TESTED_TARGET: hERG-mediated potassium current (Homo sapiens, UniProt Q12809)
# Sequence (Q12809 whole entry): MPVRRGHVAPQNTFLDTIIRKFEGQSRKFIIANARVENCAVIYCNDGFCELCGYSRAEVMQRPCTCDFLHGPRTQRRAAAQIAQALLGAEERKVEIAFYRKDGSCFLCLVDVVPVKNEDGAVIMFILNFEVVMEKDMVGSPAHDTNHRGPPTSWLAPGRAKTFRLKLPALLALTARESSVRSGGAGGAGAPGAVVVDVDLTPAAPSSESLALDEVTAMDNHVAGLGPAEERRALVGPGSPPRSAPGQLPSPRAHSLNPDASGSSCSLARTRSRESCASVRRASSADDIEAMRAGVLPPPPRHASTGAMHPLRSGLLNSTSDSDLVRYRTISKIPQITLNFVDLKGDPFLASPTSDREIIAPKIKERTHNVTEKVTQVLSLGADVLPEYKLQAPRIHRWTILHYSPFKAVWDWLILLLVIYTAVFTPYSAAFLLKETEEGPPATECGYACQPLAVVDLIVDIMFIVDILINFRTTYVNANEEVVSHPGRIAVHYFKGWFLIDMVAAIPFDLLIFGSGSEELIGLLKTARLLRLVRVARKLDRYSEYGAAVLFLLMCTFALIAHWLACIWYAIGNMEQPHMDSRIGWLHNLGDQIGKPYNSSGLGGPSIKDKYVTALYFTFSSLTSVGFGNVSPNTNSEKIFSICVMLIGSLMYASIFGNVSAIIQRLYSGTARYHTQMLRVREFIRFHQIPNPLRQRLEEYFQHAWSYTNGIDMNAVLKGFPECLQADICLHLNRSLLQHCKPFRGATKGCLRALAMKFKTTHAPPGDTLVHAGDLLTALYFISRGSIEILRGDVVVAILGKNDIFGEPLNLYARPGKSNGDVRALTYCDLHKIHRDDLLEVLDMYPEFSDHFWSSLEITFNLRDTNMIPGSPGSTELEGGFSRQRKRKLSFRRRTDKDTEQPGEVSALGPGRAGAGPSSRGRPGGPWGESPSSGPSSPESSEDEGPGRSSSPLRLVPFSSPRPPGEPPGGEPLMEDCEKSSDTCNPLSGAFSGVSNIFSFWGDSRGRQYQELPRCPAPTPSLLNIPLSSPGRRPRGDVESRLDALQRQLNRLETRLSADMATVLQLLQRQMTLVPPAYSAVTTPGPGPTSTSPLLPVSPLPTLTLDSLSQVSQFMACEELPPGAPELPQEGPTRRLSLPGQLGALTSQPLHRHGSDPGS
# ASSAY_PROCEDURE: Inhibition of hERG-mediated potassium current in transfected CHO cells
# SETTINGS: reversible inhibition

COMPOUND	UNIT_DESCRIPTOR	IC50
COc1cc(Cc2cnc(N)nc2N)c2c(c1OC)OC(C1CC1)C=C2 (racemic) [Iclaprim]	nM	900

###

# ASSAY_PROCEDURE: physchem
Where a name gives a salt, the structure may show the parent alone.

COMPOUND	pKa
COc1cc(Cc2cnc(N)nc2N)c2c(c1OC)OC(C1CC1)C=C2 (racemic) [iclaprim mesylate, methanesulfonate]	7.2

###

# ASSAY_PROCEDURE: Exposure to iclaprim in Phase I studies
# SETTINGS: human, plasma, intravenous, 150 mg, AUC, HMR 01-014, Multiple Dose Q12H × 9 days, 150 mg/10% PG (20 min); arithmetic mean
QUANTITY_NAME: AUC (ng·h/mL)

MOLECULE	QUANTITY_NAME	UNIT_DESCRIPTOR	VAL
COc1cc(Cc2cnc(N)nc2N)c2c(c1OC)OC(C1CC1)C=C2 (racemic)	AUC	ng·h/mL	3600

###

# ASSAY_PROCEDURE: in vivo
# SETTINGS: both, marmoset
Counter-ions that a name gives are not always drawn.
QUANTITY_NAME: NOAEL at 28 day (mg/kg/day)

COMPOUND	VAL
COc1cc(Cc2cnc(N)nc2N)c2c(c1OC)OC(C1CC1)C=C2 (racemic) [iclaprim mesylate, methanesulfonate]	3.9

###

# ASSAY_PROCEDURE: clinical
# SETTINGS: human, in vivo, 0.25 mg/kg, AUC

MOLECULE	UNIT_DESCRIPTOR	AUC
COc1cc(Cc2cnc(N)nc2N)c2c(c1OC)OC(C1CC1)C=C2 (racemic)	ng·h/mL	598

###

# ASSAY_PROCEDURE: in vivo
# SETTINGS: both, rat, iv, HED of NOAEL
Structures can show the parent of a compound that is named as a salt.
QUANTITY_NAME: NOAEL at 4 week

COMPOUND	VAL
COc1cc(Cc2cnc(N)nc2N)c2c(c1OC)OC(C1CC1)C=C2 (racemic) [iclaprim mesylate, methanesulfonate]	3.9 mg/kg/day

###

# ASSAY_PROCEDURE: clinical
# SETTINGS: human, in vivo, iv, 0.8 mg/kg, mean Cmax

MOLECULE	UNIT_DESCRIPTOR	Cmax
COc1cc(Cc2cnc(N)nc2N)c2c(c1OC)OC(C1CC1)C=C2 (racemic)	ng/mL	854

###

# ASSAY_PROCEDURE: clinical
# SETTINGS: human, in vivo, 4 mg/kg, Cmax
QUANTITY_NAME: Cmax (ng/mL)

MOLECULE	QUANTITY_NAME	VAL
COc1cc(Cc2cnc(N)nc2N)c2c(c1OC)OC(C1CC1)C=C2 (racemic)	Cmax	4020

###

# ASSAY_PROCEDURE: Exposure to iclaprim in Phase I studies
# SETTINGS: human, plasma, intravenous, 150 mg, AUC, HMR 01-014, Multiple Dose Q12H × 9 days, 150 mg/EtOH & NS (20 min); arithmetic mean
QUANTITY_NAME: AUC (ng·h/mL)

COMPOUND	QUANTITY_NAME	VAL
COc1cc(Cc2cnc(N)nc2N)c2c(c1OC)OC(C1CC1)C=C2 (racemic)	AUC	3220

###

# TESTED_TARGET: SCNSA sodium channel (Homo sapiens, UniProt Q14524)
# Sequence (Q14524 whole entry): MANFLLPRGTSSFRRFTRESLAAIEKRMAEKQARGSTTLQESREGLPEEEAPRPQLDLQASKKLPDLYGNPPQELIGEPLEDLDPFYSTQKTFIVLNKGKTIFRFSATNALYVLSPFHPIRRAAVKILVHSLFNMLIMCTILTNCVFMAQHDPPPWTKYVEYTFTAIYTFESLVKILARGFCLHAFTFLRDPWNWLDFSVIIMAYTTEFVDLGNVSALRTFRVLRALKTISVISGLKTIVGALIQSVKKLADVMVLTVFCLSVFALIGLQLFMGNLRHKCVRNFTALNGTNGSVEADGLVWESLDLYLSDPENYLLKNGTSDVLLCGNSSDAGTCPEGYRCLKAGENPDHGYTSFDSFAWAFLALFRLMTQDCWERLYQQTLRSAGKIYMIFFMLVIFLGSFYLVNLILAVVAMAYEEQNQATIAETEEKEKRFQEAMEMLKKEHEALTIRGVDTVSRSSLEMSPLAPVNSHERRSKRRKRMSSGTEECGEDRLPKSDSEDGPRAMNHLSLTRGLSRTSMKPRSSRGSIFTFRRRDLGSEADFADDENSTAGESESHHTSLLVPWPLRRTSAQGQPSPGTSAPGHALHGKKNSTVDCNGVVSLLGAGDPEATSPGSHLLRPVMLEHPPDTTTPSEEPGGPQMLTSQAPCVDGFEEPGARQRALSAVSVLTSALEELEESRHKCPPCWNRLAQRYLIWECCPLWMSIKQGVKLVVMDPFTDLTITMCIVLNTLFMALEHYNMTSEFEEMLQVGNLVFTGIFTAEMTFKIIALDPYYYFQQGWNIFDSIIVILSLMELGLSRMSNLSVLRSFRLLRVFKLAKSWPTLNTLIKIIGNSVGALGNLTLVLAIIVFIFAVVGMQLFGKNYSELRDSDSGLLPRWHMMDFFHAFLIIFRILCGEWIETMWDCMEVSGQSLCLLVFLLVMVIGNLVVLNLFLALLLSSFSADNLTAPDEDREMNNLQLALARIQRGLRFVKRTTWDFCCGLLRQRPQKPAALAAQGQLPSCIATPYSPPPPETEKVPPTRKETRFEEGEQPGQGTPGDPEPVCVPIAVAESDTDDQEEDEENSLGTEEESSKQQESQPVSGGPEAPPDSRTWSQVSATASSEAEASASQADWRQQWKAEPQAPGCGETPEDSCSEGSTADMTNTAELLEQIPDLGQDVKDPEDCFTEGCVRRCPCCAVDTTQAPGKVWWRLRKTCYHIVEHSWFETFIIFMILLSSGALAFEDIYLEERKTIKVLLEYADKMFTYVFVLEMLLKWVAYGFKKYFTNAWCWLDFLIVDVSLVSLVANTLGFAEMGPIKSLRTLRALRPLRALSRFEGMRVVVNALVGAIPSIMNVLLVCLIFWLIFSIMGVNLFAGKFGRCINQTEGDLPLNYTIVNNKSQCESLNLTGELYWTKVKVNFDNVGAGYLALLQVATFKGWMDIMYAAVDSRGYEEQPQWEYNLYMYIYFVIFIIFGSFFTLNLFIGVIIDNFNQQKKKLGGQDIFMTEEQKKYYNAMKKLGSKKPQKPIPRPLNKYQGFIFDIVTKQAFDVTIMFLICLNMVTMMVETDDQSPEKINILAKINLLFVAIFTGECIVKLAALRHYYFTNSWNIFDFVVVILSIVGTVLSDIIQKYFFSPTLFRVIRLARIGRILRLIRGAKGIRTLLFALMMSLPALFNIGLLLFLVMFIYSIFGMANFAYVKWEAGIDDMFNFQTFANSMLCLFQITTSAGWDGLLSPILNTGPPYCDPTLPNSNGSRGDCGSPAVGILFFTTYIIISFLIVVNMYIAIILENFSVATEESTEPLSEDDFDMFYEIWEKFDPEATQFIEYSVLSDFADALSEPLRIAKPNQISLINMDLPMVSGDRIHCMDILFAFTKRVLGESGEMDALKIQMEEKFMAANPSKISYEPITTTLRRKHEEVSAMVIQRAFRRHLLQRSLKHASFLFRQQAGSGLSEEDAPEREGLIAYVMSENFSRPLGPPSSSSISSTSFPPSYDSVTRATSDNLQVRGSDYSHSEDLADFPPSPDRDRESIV

COMPOUND	UNIT_DESCRIPTOR	IC50
COc1cc(Cc2cnc(N)nc2N)c2c(c1OC)OC(C1CC1)C=C2 (racemic) [Iclaprim]	µM	95

###

# ASSAY_PROCEDURE: clinical
# SETTINGS: human, in vivo, 4 mg/kg, AUC

COMPOUND	AUC
COc1cc(Cc2cnc(N)nc2N)c2c(c1OC)OC(C1CC1)C=C2 (racemic) [Iclaprim]	6810 ng·h/mL

###

# ASSAY_PROCEDURE: clinical
# SETTINGS: human, in vivo, 2 mg/kg, AUC

MOLECULE	UNIT_DESCRIPTOR	AUC
COc1cc(Cc2cnc(N)nc2N)c2c(c1OC)OC(C1CC1)C=C2 (racemic)	ng·h/mL	4040

###

# ASSAY_PROCEDURE: 13-week toxicology study in the marmoset, AUC at NOAEL
# SETTINGS: female, monkey, in vivo

COMPOUND	AUC at 13 week [ng·h/mL]
COc1cc(Cc2cnc(N)nc2N)c2c(c1OC)OC(C1CC1)C=C2 (racemic) [Iclaprim]	26600

###

# ASSAY_PROCEDURE: clinical
# SETTINGS: human, in vivo, 1 mg/kg

COMPOUND	Cmax (ng/mL)
COc1cc(Cc2cnc(N)nc2N)c2c(c1OC)OC(C1CC1)C=C2 (racemic)	792

###

# ASSAY_PROCEDURE: Acute IV toxicity in rats
# SETTINGS: rat, in vivo, female rats
Where a name gives a salt, the structure may show the parent alone.

COMPOUND	LD50
COc1cc(Cc2cnc(N)nc2N)c2c(c1OC)OC(C1CC1)C=C2 (racemic) [iclaprim mesylate, methanesulfonate]	> 200 mg/kg
